IC50 by entry:
Target: T1, HDM2-YFP fusion protein (p53-binding domain of human HDM2, residues 1-109, C-terminally fused to Yellow … (human, UniProt Q00987 1-109))
T1 construct: range 1-109; Expressed in E. coli BL21(DE3) from pET22-HDM2-YFP-His; also called HMD2; HDM2-YFP-His; not shown: Yellow Fluorescent Protein (YFP); C-terminal His tag
T1 sequence (Q00987 1-109): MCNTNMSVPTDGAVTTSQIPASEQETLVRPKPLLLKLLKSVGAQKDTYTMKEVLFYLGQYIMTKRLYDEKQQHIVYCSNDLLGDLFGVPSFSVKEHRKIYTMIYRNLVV
Assay: SPR inhibition assay: inhibitor added to soluble HDM2-YFP, binding to immobilized biotin-SGSG-p53(15-29) is inhibited
Bridges are numbered along the chain shown (N, C = ends). Where no end group is shown, it is not given here. [ ]: non-standard residue; d: D form. SP8 = 3-amino-N-(3-(aminooxy)propyl)-4-(mercaptomethyl)benzamide, macrocycle-forming linker reagent; mAcF = meta-acetyl-L-phenylalanine, its ketone forms an oxime with the linker; pAcF = para-acetyl-L-phenylalanine, its ketone forms an oxime with the linker; Trp(6-Cl) = N[C@@H](Cc1c[nH]c2cc(Cl)ccc12)C(=O)O; SP4 = not defined here; SP9 = not defined here
assay-endpoint: IC50 (nM)

[[record]]
binder = "Ac-[mAcF]SFAEY[Trp(6-Cl)]ALLA (linker 1-C via SP9; reading uncertain; also: linker thiol capped with iodoacetamide, also called Ac-(mAcF)SFAEY(6ClW)ALLA, SP9-linked macrocycle) [P18]"
qualifier = "="
experimental_value = 400

[[record]]
binder = "GTSFA[pAcF]YWNLLA (linker 6-C via SP8; also: linker thiol capped with iodoacetamide) [p53 macrocyclic peptidomimetic P4 (i/i+6(CO)-linked, SP8-based linker)]"
qualifier = "="
experimental_value = 1500

[[record]]
binder = "Ac-[pAcF]SFAEY[Trp(6-Cl)]ALLA (linker 1-C via SP4; reading uncertain; also: linker thiol capped with iodoacetamide, also called Ac-(pAcF)SFAEY(6ClW)ALLA, SP4-linked macrocycle) [P19]"
qualifier = ">"
experimental_value = 50000

[[record]]
binder = "Ac-GTSFAYYWNLLA-NH2 (also called acyclic counterpart of P3 and P4) [P2]"
qualifier = "="
experimental_value = 1510

